# test_target: hTLR8 (Homo sapiens)
# Construct: host or cells: HEK293 cells stably transfected with hTLR8
# Sequence (Q9NR97 27-1041): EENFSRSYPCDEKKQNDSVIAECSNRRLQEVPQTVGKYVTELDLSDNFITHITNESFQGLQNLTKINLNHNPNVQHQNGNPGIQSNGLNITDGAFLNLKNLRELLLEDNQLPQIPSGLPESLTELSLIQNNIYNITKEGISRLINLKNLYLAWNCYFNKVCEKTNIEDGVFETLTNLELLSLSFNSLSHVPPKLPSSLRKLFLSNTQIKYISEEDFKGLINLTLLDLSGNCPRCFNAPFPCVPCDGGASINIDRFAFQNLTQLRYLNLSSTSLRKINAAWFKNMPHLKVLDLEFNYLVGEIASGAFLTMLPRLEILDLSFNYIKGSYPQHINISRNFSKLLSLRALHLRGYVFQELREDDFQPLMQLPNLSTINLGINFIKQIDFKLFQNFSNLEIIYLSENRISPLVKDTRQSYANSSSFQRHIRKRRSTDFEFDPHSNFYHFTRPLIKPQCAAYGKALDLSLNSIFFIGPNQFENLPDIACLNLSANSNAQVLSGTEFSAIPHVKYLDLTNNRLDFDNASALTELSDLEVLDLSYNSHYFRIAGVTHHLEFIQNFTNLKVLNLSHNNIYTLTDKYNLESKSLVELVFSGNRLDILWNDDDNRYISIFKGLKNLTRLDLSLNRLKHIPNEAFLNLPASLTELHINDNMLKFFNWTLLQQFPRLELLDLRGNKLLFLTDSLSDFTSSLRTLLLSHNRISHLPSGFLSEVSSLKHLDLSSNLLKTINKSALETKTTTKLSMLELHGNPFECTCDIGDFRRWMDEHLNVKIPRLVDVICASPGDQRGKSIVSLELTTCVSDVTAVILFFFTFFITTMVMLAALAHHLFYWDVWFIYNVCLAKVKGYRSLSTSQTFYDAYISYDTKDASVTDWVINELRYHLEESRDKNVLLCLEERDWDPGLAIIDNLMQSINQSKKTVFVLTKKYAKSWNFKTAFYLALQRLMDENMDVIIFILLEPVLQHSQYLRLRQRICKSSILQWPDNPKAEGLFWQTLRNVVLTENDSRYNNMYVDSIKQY
# experiment: HEK-293 hTLR8 transfectant NF-κB SEAP reporter antagonist assay
# Format: cell-based
# condition_context: IC50, nM, vs. VTX-378 10 μM, agonist VTX-378 at 10 μM
property_name: IC50

Task: Data request, read-out IC50, for CCCN(CCC)C(=O)C1=Cc2cc(-c3ccc(C(=O)N4CCCC4)cc3)ccc2N=C(N)C1 [Compound 2987]
Result: 1000 to 10000 nM

Task: Data request, read-out IC50, for CCOC(=O)C1=Cc2cc(-c3ccc(C(=O)N4CCCC4)cc3)ccc2-n2c(n[nH]c2=O)C1 [Compound 3000]
Result: ≥ 10000 nM

Task: Data request, read-out IC50, for COC(=O)C1=Cc2cc(-c3ccc(C(=O)N4CCCC4)cc3)ccc2N=C(N)C1 [Compound 2931]
Result: 1000 to 10000 nM

Task: Data request, read-out IC50, for CC(C)OC(=O)C1=Cc2cc(-c3ccc(C(=O)N4CCCC4)cc3)ccc2N=C(N)C1 [Compound 2984]
Result: 1000 to 10000 nM

Task: Data request, read-out IC50, for CCOC(=O)C1=Cc2cc(-c3ccc(C(=O)N4CCCC4)cc3)ccc2-n2ccnc2C1 [Compound 2919]
Result: ≥ 10000 nM

Task: Data request, read-out IC50, for CN(C)C(=O)C1=Cc2cc(-c3ccc(C(=O)N4CCCC4)cc3)ccc2N=C(N)C1 [Compound 2986]
Result: ≥ 10000 nM

Task: Data request, read-out IC50, for CCOC(=O)C1=Cc2cc(-c3ccc(C(=O)N4CCCC4)cc3)ccc2N=C(NC)C1 [Compound 2922]
Result: ≥ 10000 nM

Task: Data request, read-out IC50, for CCOC(=O)C1=Cc2cc(-c3ccc(C(=O)N4CCCC4)cc3)ccc2N2CCN=C2C1 [Compound 2966]
Result: ≥ 10000 nM

Task: Data request, read-out IC50, for CCOC(=O)N1CC(N)=Nc2ccc(-c3ccc(C(=O)N4CCCC4)cc3)cc2C1 [Compound 2954]
Result: ≥ 10000 nM

Task: Data request, read-out IC50, for CCOC(=O)C1=Cc2cc(-c3ccc(C(=O)N4CCCC4)cc3)ccc2-n2cnnc2C1 [Compound 2976]
Result: ≥ 10000 nM

Task: Data request, read-out IC50, for CCOC(=O)C1=Cc2cc(-c3ccc(C(=O)N4CCCC4)cc3)ccc2N=C(NN)C1 [Compound 2962]
Result: ≥ 10000 nM

Task: Data request, read-out IC50, for CCOC(=O)C1=Cc2cc(-c3ccc(C(=O)N4CCCC4)cc3)ccc2N=C(NN(C)C)C1 [Compound 2926]
Result: ≥ 10000 nM

Task: Data request, read-out IC50, for CCOC(=O)N1Cc2cc(-c3ccc(C(=O)N4CCCC4)cc3)ccc2N=C(N)C12CC2 [Compound 3020]
Result: ≥ 10000 nM

Task: Data request, read-out IC50, for CCOC(=O)C1=Cc2cc(-c3ccc(C(=O)N4CCCC4)cc3)ccc2N=C(N(C)C)C1 [Compound 2929]
Result: ≥ 10000 nM

====

Give pIC50 for every item shown.
# test_target: hTLR8 (Homo sapiens)
# Construct: host or cells: HEK293 cells stably transfected with hTLR8
# experiment: HEK-293 hTLR8 transfectant NF-κB SEAP reporter antagonist assay
# Format: cell-based
# condition_context: hTLR8 reporter cells, 2 h preincubation, then 1 μM Compound A overnight; read-out: IC50
# Procedure: The HEK-293 hTLR transfectant assay employs HEK293 cells stably transfected with various hTLRs and transiently co-transfected with a plasmid containing an NF-κB driven secreted embryonic alkaline phosphate (SEAP) reporter gene. […] Reporter gene activity is then measured using a spectrophotometric assay. […] In a typical assay, 50,000 HEK239 hTLR8 cells are seeded per culture well and transiently transfected with the SEAP reporter gene. […] Antagonists are also evaluated for activity in the absence of agonist. […]
pIC50: −log10 of the molar value.

Task: Data request, read-out pIC50, for `CCOC(=O)C1=Cc2cc(-c3ccc(C(=O)N4CCCC4)cc3)ccc2N=C(N)C1`
Result: > 6.00

Task: Data request, read-out pIC50, for `CCCN(CCC)C(=O)C1=Cc2ccc(-c3ccc(C(=O)N4CCCC4)cc3)cc2N=C(NN)C1`
Result: 5.30 to 6.00

Task: Data request, read-out pIC50, for `CCOC(=O)N1Cc2ccc(-c3ccc(C(=O)N4CCCC4)cc3)cc2N=C(N)C12CC2`
Result: 5.00 to 5.30

Task: Data request, read-out pIC50, for `CCOC(=O)C1=Cc2cc(OC)c(-c3ccc(C(=O)N4CCCC4)cc3)cc2N=C(N)C1`
Result: ≤ 5.00

Task: Data request, read-out pIC50, for `CCCN(CCC)C(=O)C1=Cc2cc(OC)c(-c3ccc(C(=O)N(CCC)CCC)cc3)cc2N=C(N)C1`
Result: 5.30 to 6.00

Task: Data request, read-out pIC50, for `CCCN(CCC)C(=O)C1=Cc2cc(OC)c(-c3ccc(C(=O)N4CCCC4)cc3)cc2N=C(N)C1`
Result: 5.00 to 5.30

Task: Data request, read-out pIC50, for `CCOC(=O)C1=Cc2cc(OCc3ccccn3)ccc2N=C(N)C1`
Result: 5.30 to 6.00
